Target: T1, human PD-L1 protein (soluble) (human, UniProt Q9NZQ7 19-239)
T1 construct: also called PD-L1 (R&D Systems); His-tagged PD-L1 protein
T1 sequence (Q9NZQ7 19-239 limits assumed): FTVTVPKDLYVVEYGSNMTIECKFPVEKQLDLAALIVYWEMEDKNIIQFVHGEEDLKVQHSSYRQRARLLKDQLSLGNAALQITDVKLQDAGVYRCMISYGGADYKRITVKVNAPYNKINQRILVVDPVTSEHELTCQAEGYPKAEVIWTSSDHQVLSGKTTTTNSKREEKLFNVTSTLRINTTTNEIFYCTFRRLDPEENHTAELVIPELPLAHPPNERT
Experiment: SPR, mAb captured on anti-human IgG Fc, PD-L1 as analyte
Quantity name: pKd
Interpret pKd as the negative base-10 log of the concentration measured in mol/L.

Observe how each entry below is paired with its result.
antibody A8 (antibody, V domains shown, Tested as full-length mAb made in CHO cells; also called L8H8) VH: QVQLVQSGAEVKKPGASVKVSCKASGYTFTSYGISWVRQAPGQGLEWMGWISAYNGSTNYAQKLQGRVTMTTDTSTSTAYMELRSLRSDDTAVFYCARDDRIAVADYYYYFGMDVWGQGTTVTVSS VL: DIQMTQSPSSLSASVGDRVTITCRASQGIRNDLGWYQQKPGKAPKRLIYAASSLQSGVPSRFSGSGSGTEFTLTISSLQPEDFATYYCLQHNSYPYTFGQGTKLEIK :: 7.66
antibody A2 (antibody, V domains shown, Tested as full-length mAb made in CHO cells; also called L2H2) VH: EVQLVESGGGLVQPGGSLRLSCAASGFTFSRYDMSWVRQAPGKGLEWVSTISGSGGSTYYADSVKGRFTISRDNSKTTLYLQMISLRAEDTAVYYCAKAGFTMIVVAFDYWGQGTLVTVSS VL: DIQMTQSPSSLSASVGDRVTITCRASQGISNYLAWFQQKPGKAPKSLIYAASSLQSGVPSKFSGSGSGTDFTLTISSLQPEDFATYYCQQYNSYPYTFGQGTKLEIK :: 8.46

We next turn to a different binder, shown below.
Ask: # get_value(readout='pKd', item= antibody A4 (antibody, V domains shown, Tested as full-length mAb made in CHO cells; also called L4H4) VH: QVQLVESGGGVVQPGRSLRLSCAASGFTFSNYGMHWVRQAPGKGLEWVAVIWFDGNTKYYTDSVKGRFTISRDNSKNTLYLQMNSLRAEDTAVYYCARDITMVPMDVWGQGTTVTVSS VL: AIQMTQSPSSLSASVGDRVTITCRASQDIRNDLGWYQQQPGKAPKLLIYAASSLQSGVPSRFSGSGSGTDFTLTISSLQPEDFATYYCLQDYNYPPTFGQGTKVEIK )
Reply: 8.19
